Target: Proteasome subunit beta (Trypanosoma cruzi) (UniProt O96673)
Sequence (O96673 as listed by the source): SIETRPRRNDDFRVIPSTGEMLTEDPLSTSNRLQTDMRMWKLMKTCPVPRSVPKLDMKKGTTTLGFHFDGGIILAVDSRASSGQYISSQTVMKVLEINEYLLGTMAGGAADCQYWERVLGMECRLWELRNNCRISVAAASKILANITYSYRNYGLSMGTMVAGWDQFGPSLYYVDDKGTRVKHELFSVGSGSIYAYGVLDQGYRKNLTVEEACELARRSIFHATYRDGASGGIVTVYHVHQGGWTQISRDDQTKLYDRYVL
Assay: Trypanosoma cruzi proteasome chymotrypsin-like activity (TcProtChymo) assay.
Assay type: functional
Parameters: scale not given: in the data most compounds retested in dose-response had high values
Conditions: 9.37 µM
Reported Percent Effect values follow for various compounds
MEASUREMENT_NAME: Percent Effect (%)

• CC(C)(C)C(=O)N1CCC2(COCc3cnc(N4CCOCC4)nc32)C1 (centres undefined) = 9.06
• CCN(CCC(F)(F)F)C(=O)Nc1cccc(N2CCOCC2)c1 = 5.52
• COc1ccc(NC(C)C(=O)N2CCN(Cc3ccccc3)CC2)cn1 (centres undefined) = -6.21
• Cc1cccc(OCCC(=O)N2CCN(S(=O)(=O)N(C)C)CC2)c1C = 8.93
• CCc1c(C(=O)NCC(=O)OCC2CC2)cnn1-c1ccc(C)cc1 = 10.7
• Cc1ccc(CN2CC3(CCN(C(=O)c4cscn4)C3)C2)s1 = 9.85
• O=C(c1cccnc1N1CCOCC1)N1CCCC(n2ccnc2)C1 (centres undefined) = 9.36
• CN(C(=O)c1cc(Cl)c[nH]1)C1CCN(c2ccccn2)CC1 = 9.46
• O=C(CN1CCOC(Cn2cccn2)C1)Nc1nccs1 (centres undefined) = 8.8
• O=C(CNC(=O)N1CCc2c([nH]c3ccc(Cl)cc23)C1)N1CCOCC1 = 10.5
• Cc1ccc(C(CNCc2ccncc2)N2CCOCC2)s1 (centres undefined) = 17.8
• Cc1nc(C(=O)N2CCCC(n3cncn3)C2)cs1 (centres undefined) = 4.63
• Cc1noc(NC(=O)c2ccc(Br)cc2)n1 = 16.3
• CCn1nnc2cc(C(=O)N3CCCC3Cn3cc(C)cn3)ccc21 (centres undefined) = 0.737
• c1cc2n(n1)CC(CNCc1ccc(OCC3CC3)nc1)CN2 (centres undefined) = 3.04
• Cc1nn(C)c2c(N3CCN(C(=O)C4CCC4)CC3)ncnc12 = 13.7
• CCCc1nc(C)cc(N2CCC3(CCC(=O)N(CC4CC4)C3)CC2)n1 = 8.67
• Cc1ccoc1-c1nnc(CNCCn2cccn2)o1 = 7.29
• O=C(COc1cccc(Br)c1)N1CCOCC1c1ncon1 (centres undefined) = 1.44
• CN(C)C(=O)N1C[C@H]2CN(Cc3cccc(F)c3)C(=O)[C@H]2C1 = 20.9
• CCOc1nnc(CN2CCC(N(C)Cc3noc(C)n3)C2)s1 (centres undefined) = 12.4
• COc1cc2ncn(CC(=O)NCCCN(C)C)c(=O)c2cc1OC = 7.76
• CC1CN(C(=O)c2ccn(-c3cccc(Cl)c3)n2)CCO1 (centres undefined) = 17.4
• CCn1c(=O)nc2n1C(=O)N(c1cccc(Cl)c1)C2 = 13.7
• OC1(CN2CCCC2)CCCN(Cc2ccc(F)cc2Cl)C1 (centres undefined) = 12
• Cc1ccc(CCNC(=O)N2CCCC(Cc3nccn3C)C2)cn1 (centres undefined) = 9.89
• COCC1CC2(CCN(C(=O)c3occc3C)CC2)CO1 (centres undefined) = 3.65
• Cc1cc(CN2CCN(C(=O)Nc3cccnc3)CC2)on1 = 4.51
• c1cncc(COCc2nnc3n2CCN(Cc2ccoc2)C3)c1 = 21
